# Test target: T1, PltB homopentamer, biotinylated (Salmonella enterica serovar Typhi; …, UniProt Q8Z6A3, biotinylated with EZ-link NHS-Biotin (sites not given))
# T1 construct: also called PltB5; pentameric PltB subunits
# Experiment summary: ELISA; […] (30 min, 37°C) […]
# Details: both partners purified
Property name: binding result

T2G1 (VHH, also called anti-PltB VHH T2G1; source: E. coli Rosetta-gami 2(DE3)pLacI, pET32b+, purified (Ni-NTA)) VHH: QVQLAESGGGLVQAGGSLRLSCAASGLTFDKYAIGWFRQAPGKERELVSCISTNYGSTYYADSVKGRFTISTDNAKNTVYLQMNGLKPEDTAVYYCAADTRSSWPSCNALDTWGQGTLVTVSS    binds
T2G9 (VHH, also called anti-PltB VHH T2G9; source: E. coli Rosetta-gami 2(DE3)pLacI, pET32b+, purified (Ni-NTA)) VHH: QVQLVETGGGSVQAGGSLRLSCAASGFTFDDYAIGWFRQAPGKEREMILCINSRGGSTSYYADSVKGRFTVSVNSAKNTAYLQMNSLKPEDTAVYYCAADVTPPHSCNALDAWGQGTLVTVSS    binds
T2E7 (VHH, also called anti-PltB VHH T2E7; source: E. coli Rosetta-gami 2(DE3)pLacI, pET32b+, purified (Ni-NTA)) VHH: QLQLVESGGGLVQPGGSLRLSCAASGFTLDYYAIGWFRQAPGKERERVSCISGRDGGTYYADSVKGRFAISRDNAQNTVYLQMSRLKPEDTAAYYCAADYADNYCTGSFPPDYWGQGTQVTVSS    binds
